In this section, each of the binders is paired with its reported MLR assay (EC50).
Target or system: human CD28 (human, UniProt P10747 19-220)
Assay name: cell-based or functional assay
Give the figure together with its unit, number first.

Here's what some known entries look like.
1h-99-2113 (other) VH: EVQLLESGGGLVQPGGSLRLSCAASGFTFKDKNMSWARQAPGKGLEWVSWIEASGVQTFYADSVKGRFTISRDNSKNTLYLQMNSLRAEDTAVYYCAKSPFGPLYGFDYRGQGTLVTVSS = 3 nM
1h-79-24 (other) VL: DIQMTQSPSSLSASVGDRVTITCRASQPIGHSLGWYQQKPGKAPKLLIYWASTLQSGVPSRFSGSGSGTDFTLTISSLQPEDFATYYCQQMLRTPFAFGQGTKVEIKR = 295 nM
1h-239-850 (other) VL: DIQMTQSPSSLSASVGDRVTITCRASRPIWPFLEWYQQKPGKAPKLLIYFTSRLQSGVPSRFSGSGSGTDFTLTISSLQPEDFATYYCLQNVSMPATFSQGTKVEIKR = 2 nM
1h-99-220 (other) VH: EVQLLESGGGLVQPGGSLRLSCAASGFTFYRSNMSWVRQAPGKGLEWVSWIEDTGTQTFYADSVKGRFTISRDNSKNTLYLQMNSLRAEDTAVYYCAKSPFGPLYGFDYRGQGTLVTVSS = 12 nM
1h-116 (other) VL: DIQMTQSPSSLSASVGDRVTITCRASQSIYPFLEWYQQKPGKAPRLLIYFTSRLQSGVPSRFSGSGSGTDFTLTISSLQPEDFATYYCQQNATNPATFGQGTKVEIKR = 2400 nM
1h-35-9 (other) VL: DIQMTQSPSSLSASVGDRVTITCRASQYIGSALGWYQQKPGKAPKLLIYRASNMQSGVPSRFSGSGSGTDFTLTISSLQPEDFATYYCQQLAIRPFTFGQGTKVEIKR = 318 nM
1h-80 (other) VL: DIQMTQSPSSLSASVGDRVTITCRASQRIGSNLAWYQQKPGKAPKLLIYWASLLQSGVPSRFSGSGSGTDFTLTISSLQPEDFATYYCQQTRSAPFTFGQGTKVEIKR = 2000 nM
1h-99-268 (other) VH: EVQLLESGGGLVQPGGSLRLSCAASGFTFKSANMSWVRQAPGKGLEWVSWIEAPGVQTFYADSVRGRFTISRDNSKNTLYLQMNSLRAEDTAVYYCARSPFGPLYGFDYRGQGTLVTVSS = 13 nM

Recorded MLR assay (EC50) of 1h-93 (other) VH: EVQLLESGGGLVQPGGSLRLSCAASGFTFPLYEMAWVRQAPGKGLEWVSSIMSNGIRTYYADSVKGRFTISRDNSKNTLYLQMNSLRAEDTAVYYCAKRKSSSSRTVFDYWGQGTLVTVSS , please.
3200 nM

Recorded MLR assay (EC50) of 1h-99-256 (other) VH: EVQLLESGGGLVQPGGSLRLSCAASGFTFDSANMSWVRQAPGKGLEWVSWIEAIGVQTFYADSVKGRFTISRDNSKNTLYLQMNSLRAEDTAVYYCAKSPFGPLYGFDYRGQGTLVTVSS , please.
7 nM

Recorded MLR assay (EC50) of 1h-79-802 (other) VL: DIQMTQSPSSLSASVGDRVTITCRASTPIGHSLGWYQQKPGKAPKLLIYWASTLQSGVPSRFSGSGSGTDFTLTISSLQPEDFATYYCQQMLRTPFMFGQGTKVEIKR , please.
48 nM

Recorded MLR assay (EC50) of 1h-239-815 (other) VL: DIQMTQSPSSLSASVGDRVTITCRASQPIWPFLEWYQQKPGKAPKLLIYFTSRLQSGVPSRFSGSGSGTDFTLTISSLQPEDFATYYCLQNVTNPATFSQGTKVEIKR , please.
6 nM

Recorded MLR assay (EC50) of 1h-93-1 (other) VH: EVQLLESGGGLVQPGGSLRLSCAASGFTFPLYEMAWVRQAPGKGLEWVSSIMSNGTRTYYADSVKGRFTISRDNSKNTLYLQMNSLRAEDTAVYYCAKRESSSSRTVFDYWGQGTLVTVSS , please.
545 nM
